target_or_test_system: the molecule itself
test_method_notes: native MS; nanoflow ESI-MS of the native MBP-fused variants; source backing pressure 7.8 mbar, cone voltage 100-150 V
assay_endpoint: stoichiometry N
// keep it numeric: no unit symbol after the value

stdin: Data request, read-out stoichiometry N, for MBP-TtProDH ΔAB (MBP-TtProDH lacking helices αA and αB) (domain or fragment, Thermus thermophilus, Proline dehydrogenase (TtProDH), Thermus thermophilus, lacking helices αA and αB; C-terminal tail of TtProDH (part of helix α8), residues 288-309 as printed; not shown: MBP, N-terminal, kept) KGLVRRYVAGETLEEALKAAEALEREGVHAILDLLGEMVRTEEEARAFQRGLLELVWALAGKPWPKYISLKLTQLGLDLSEDLALALLREVLREAEPRGVFVRLDMEDSPRVEATLRLYRALREEGFSQVGIVLQSYLYRTEKDLLDLLPYRPNLRLVKGAYREPKEVAFPDKRLIDAEYLHLGKLALKEGLYVAFATHDPRIIAELKRYTEAMGIPRSRFEFQFLYGVRPEEQRRLAREGYTVRAYVPYGRDWYPYLTRRIAERPENLLLVLRSLVSGLE
stdout: 2
